# Tested on: Escherichia coli TOP10;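 further: peptides expressed intracellularly from a pBAD plasmid library in pooled LB shake-flask culture, induced with 0.3% L-arabinose, DNA abundance read by NGS, three biological replicates, DESeq2 with apeglm shrinkage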
# assay-text: shrunken log2 fold change of peptide-encoding DNA abundance (4.5 h post-induction vs induction); higher = less antimicrobial activity (less host growth inhibition)
# conditions: time post-induction: 4.5 h; library: site-saturation at positions 5, 18, 19, 20
Items are presented alongside their recorded shrunken log2 fold change.
measure: shrunken log2 fold change

INSERT INTO assay_data (chain_sequence, measure, assay_result) VALUES
  ('RRIRHRPPRLPRPRPRPHTPPRP', 'shrunken log2 fold change', -0.147),
  ('RRIRTRPPRLPRPRPRPVSVPRP', 'shrunken log2 fold change', -0.0287),
  ('RRIRSRPPRLPRPRPRPPYIPRP', 'shrunken log2 fold change', -0.296),
  ('RRIRSRPPRLPRPRPRPHKYPRP', 'shrunken log2 fold change', -0.377),
  ('RRIRPRPPRLPRPRPRPFATPRP', 'shrunken log2 fold change', 0.0676),
  ('RRIRQRPPRLPRPRPRPHQGPRP', 'shrunken log2 fold change', 0.0866),
  ('RRIRPRPPRLPRPRPRPSLGPRP', 'shrunken log2 fold change', 0.342),
  ('RRIRNRPPRLPRPRPRPLISPRP', 'shrunken log2 fold change', 3.16),
  ('RRIRDRPPRLPRPRPRPVLIPRP', 'shrunken log2 fold change', -0.0161),
  ('RRIRWRPPRLPRPRPRPQAFPRP', 'shrunken log2 fold change', 0.0509),
  ('RRIRVRPPRLPRPRPRPAVMPRP', 'shrunken log2 fold change', -0.0705),
  ('RRIRFRPPRLPRPRPRPFCNPRP', 'shrunken log2 fold change', -0.196),
  ('RRIRPRPPRLPRPRPRPTQTPRP', 'shrunken log2 fold change', 0.147),
  ('RRIRNRPPRLPRPRPRPRPAPRP', 'shrunken log2 fold change', 0.313),
  ('RRIRGRPPRLPRPRPRPFCCPRP', 'shrunken log2 fold change', 0.522);
